Hello, the source for this data is paper PMC12152147, in case you need it.

Entries and their IC50
Test system: primary AML specimens
Test: Dose-response assays in primary AML specimens (6 days, CellTiterGlo)
Assay type: cell-based, human
Settings: Homo sapiens, 144 h, primary AML specimen 12H055; 6 days; read-out: IC50
Give just the number in µM; leave the unit off.

> print(dat)
                               input.smiles  quantity.unit  numeric.readout
1  CN(C)C/C=C/C(=O)Nc1ccc(C(=O)N2CCC[C@@H](Nc3ncc(Cl)c(-c4c[nH]c5ccccc45)n3)C2)cc1             µM           0.0517

Which measured IC50 belongs to "Cn1cc(-n2cnc3c(NCc4nc5cc(Cl)c(Cl)cc5[nH]4)nc(N4CCOCC4)nc32)cn1" , tested on primary AML specimens?
0.0447

Which measured IC50 belongs to "CC(C)(C)c1cnc(CSc2cnc(NC(=O)C3CCNCC3)s2)o1" , tested on primary AML specimens?
0.183

Which measured IC50 belongs to "CN(C)c1ccc(CC(=O)Nc2ncc(SCc3cccnc3)s2)cc1" , tested on primary AML specimens?
1.39

====

Test system: OCI-AML5 cells expressing shRNAs targeting CDK1, 2, 4, 7, 9, cyclin K
Test: Dose response in OCI-AML5 expressing shRNAs targeting CDK1, 2, 4, 7, 9, cyclin K or control
Assay type: cell-based, H. sapiens
Settings: Homo sapiens, OCI-AML-5, 96 h, OCI-AML5, 4 days; read-out: IC50, sh ctrl
Measured Parameter: pIC50
When answering, recall that pIC50 equals minus log10 of the concentration in mol/L, and write that number alone.

> print(dat)
                                   compound  measured.parameter  numeric.readout
1  CN(C)c1ccc(CC(=O)Nc2ncc(SCc3cccnc3)s2)cc1 [S656]               pIC50             6.12

Now for another entry.
Dear colleague, I am looking for the recorded pIC50 of the following compound: CC(C)(C)c1cnc(CSc2cnc(NC(=O)C3CCNCC3)s2)o1 [SNS-032]
7.43

====

System: OCI-AML5 cells expressing shRNAs targeting CDK1, 2, 4, 7, 9, cyclin K
Experiment: Dose response in OCI-AML5 expressing shRNAs targeting CDK1, 2, 4, 7, 9, cyclin K or control
Format: cell-based, H. sapiens
Conditions: Homo sapiens, OCI-AML-5, OCI-AML5 expressing shRNA CDK4; read-out: IC50 shRNA CDK4
Measured Parameter: pIC50
When answering, recall that pIC50 equals minus log10 of the concentration in mol/L, and write that number alone.

> print(dat)
                                   compound  measured.parameter  numeric.readout
1  O=C(Cc1ccc(-c2ccccc2)cc1)Nc1ncc(SCc2cccnc2)s1               pIC50             6.39
2  CC(=O)N[C@@H]1CCC[C@H](C(=O)Nc2cc(-c3cnn4c3CC(C)(C)C4)c(Cl)cn2)C1 [AZD4573, reference compound]               pIC50             8.98
3         O=C(CC1CCCC1)Nc1ncc(SCc2cccnc2)s1               pIC50             5.39

Now for another entry.
Dear colleague, I am looking for the recorded pIC50 of the following compound: "O=C(Cc1ccc(N2CCOCC2)cc1)Nc1ncc(SCc2cccnc2)s1"
5.73
